- testSystem: Neuropeptide FF receptor 2 (Homo sapiens)
- Sequence (Q9Y5X5 whole entry): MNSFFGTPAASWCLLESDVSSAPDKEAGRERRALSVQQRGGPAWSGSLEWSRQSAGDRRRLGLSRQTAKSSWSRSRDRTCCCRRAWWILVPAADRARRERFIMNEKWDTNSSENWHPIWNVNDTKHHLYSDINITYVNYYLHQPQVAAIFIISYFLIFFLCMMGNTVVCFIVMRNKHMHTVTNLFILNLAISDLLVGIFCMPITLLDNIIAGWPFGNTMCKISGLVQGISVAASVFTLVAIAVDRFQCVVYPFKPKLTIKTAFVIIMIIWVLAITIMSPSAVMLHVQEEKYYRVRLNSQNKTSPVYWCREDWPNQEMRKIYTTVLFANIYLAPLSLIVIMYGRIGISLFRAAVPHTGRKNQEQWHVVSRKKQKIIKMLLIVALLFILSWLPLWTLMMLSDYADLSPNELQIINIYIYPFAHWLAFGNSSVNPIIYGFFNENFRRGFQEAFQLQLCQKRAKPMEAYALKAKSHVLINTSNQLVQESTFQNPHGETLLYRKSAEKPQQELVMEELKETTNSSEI
- testDetails: Displacement of [125I]EYF from human NPFF2 receptor expressed in CHO cells after 1 hr by liquid scintillation counting analysis
- Type: cell-based
measureName: Ki

Consider the worked cases shown below.
1) N=C(N)NCCC[C@H](N)C(=O)NCC1CCN(Cc2ccccc2)CC1; 7.58 µM
2) N=C(N)NCC1(Nc2ccccc2)CCN(CCc2ccccc2)CC1; 2.77 µM
3) N=C(N)NCCC[C@H](N)C(=O)NCC1(Nc2ccccc2)CCN(Cc2ccccc2)CC1; 1.05 µM

Below are some compounds; for each one, tell me its Ki.
1. N=C(N)NCC1(Nc2ccccc2)CCN(Cc2ccccc2)CC1
2. CN1CCC(CNC(=O)[C@@H](N)CCCNC(=N)N)(Nc2ccccc2)CC1

A.
1. 6.62 µM
2. > 5 µM

Your task in this section: give Ki for each listed record.
1. CN1CCC(CNC(=N)N)(Nc2ccccc2)CC1
2. N=C(N)NCCC[C@H](N)C(=O)NCC1(Nc2ccccc2)CCN(Cc2ccc3ccccc3c2)CC1
3. N=C(N)NCCC[C@H](N)C(=O)NCC1(Nc2ccccc2)CCN(CCc2ccccc2)CC1

A.
1. > 5 µM
2. 0.304 µM
3. 1.69 µM
